Listing of recorded Kd by entry.
- Target Under Test: FGFR1 (Homo sapiens)
- Construct: made in house; host or cells: E. coli (BL21-derived), T7 phage
- Sequence (P11362 22-822): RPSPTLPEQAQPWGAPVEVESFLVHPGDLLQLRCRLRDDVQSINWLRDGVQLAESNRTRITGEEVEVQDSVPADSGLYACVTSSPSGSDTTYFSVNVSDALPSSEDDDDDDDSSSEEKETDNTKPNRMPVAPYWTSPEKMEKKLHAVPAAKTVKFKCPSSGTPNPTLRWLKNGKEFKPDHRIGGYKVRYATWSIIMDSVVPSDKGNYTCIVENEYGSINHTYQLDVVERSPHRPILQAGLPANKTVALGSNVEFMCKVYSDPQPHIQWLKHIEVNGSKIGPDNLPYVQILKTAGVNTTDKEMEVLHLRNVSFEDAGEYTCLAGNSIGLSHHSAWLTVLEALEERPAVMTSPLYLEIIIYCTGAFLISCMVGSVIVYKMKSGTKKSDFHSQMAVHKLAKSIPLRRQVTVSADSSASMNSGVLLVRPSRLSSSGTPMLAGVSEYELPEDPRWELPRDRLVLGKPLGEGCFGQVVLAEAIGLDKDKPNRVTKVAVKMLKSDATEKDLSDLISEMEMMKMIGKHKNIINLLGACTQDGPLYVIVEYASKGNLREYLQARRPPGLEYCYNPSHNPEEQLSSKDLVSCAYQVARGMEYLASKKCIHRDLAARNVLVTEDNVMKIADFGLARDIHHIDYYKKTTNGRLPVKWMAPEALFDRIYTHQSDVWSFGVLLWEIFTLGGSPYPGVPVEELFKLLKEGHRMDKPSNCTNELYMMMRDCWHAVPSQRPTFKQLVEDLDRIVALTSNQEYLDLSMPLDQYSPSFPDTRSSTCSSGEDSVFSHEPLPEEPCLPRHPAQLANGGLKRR
- Assay Explanation: Kinase binding assay (kinase-tagged T7 phage, affinity beads, qPCR), Kd
- Condition: read-out: FGFR1 (Kd nM)

Worked examples, 2 compounds total:
INSERT INTO measurements (compound, reported_property, obs_value) VALUES
  ('COc1cc2[nH]nc(-c3ccc(N4CC[C@](C)(N)C4)nc3)c2cc1O[C@H](C)c1c(Cl)cncc1Cl', 'Kd', '1 to 50 nM'),
  ('CC[C@@H](C)NC1(C)CN(c2ncc(-c3n[nH]c4ccc(O[C@H](C)c5c(Cl)cncc5Cl)cc34)cc2F)C1', 'Kd', '1 to 50 nM');

Q: Value lookup for Kd; key = C[C@@H](Oc1ccc2[nH]nc(-c3cnc(N4CC(C)(NCC5CC5)C4)c(C#N)c3)c2c1)c1c(Cl)cncc1Cl
Result: 1 to 50 nM

Q: Value lookup for Kd; key = C[C@@H](Oc1ccc2[nH]nc(-c3cnc(N4CC(N)(CC#N)C4)c(F)c3)c2c1)c1c(Cl)cncc1Cl
Result: 1 to 50 nM

Q: Value lookup for Kd; key = C[C@@H](Oc1ccc2[nH]nc(-c3cnc(N4CC(C)(NCCO)C4)c(F)c3)c2c1F)c1c(Cl)cncc1Cl
Result: > 1000 nM

Q: Value lookup for Kd; key = COc1cc2[nH]nc(-c3ccc(N4CC(C)(N)C4)nc3)c2cc1O[C@H](C)c1c(Cl)cncc1Cl
Result: 1 to 50 nM

====

- Test system: KG-1 cell line (FGFR 1-fusion)
- Assay Explanation: Cancer cell line cell viability assay (Cell Titer-Glo), 72 hr
- Type: cell-based
- Condition: Homo sapiens, KG-1, KG-1 cell line (FGFR1-fusion)
Listing of recorded IC50 by entry.

Worked examples, 5 compounds total:
INSERT INTO measurements (entry_smiles, reported_property, obs_value) VALUES
  ('COc1cc2[nH]nc(-c3cnc(N4CC(N)(CC5CC5)C4)c(C#N)c3)c2cc1O[C@H](C)c1c(Cl)cncc1Cl', 'IC50', '50 to 200 nM'),
  ('CC[C@@H](C)NC1(C)CN(c2ccc(-c3n[nH]c4ccc(O[C@H](C)c5c(Cl)cncc5Cl)cc34)cn2)C1', 'IC50', '50 to 200 nM'),
  ('COc1cc2[nH]nc(-c3cnc(N4CC(C)(CN(C)C)C4)c(C#N)c3)c2cc1O[C@H](C)c1c(Cl)cncc1Cl', 'IC50', '0.1 to 50 nM'),
  ('C[C@@H](Oc1cc2c(-c3cnc(N4CC(C)(NCC5CC5)C4)c(F)c3)n[nH]c2cc1F)c1c(Cl)cncc1Cl', 'IC50', '50 to 200 nM'),
  ('C[C@@H](Oc1ccc2[nH]nc(-c3cnc(N4CC(C)(NCCS(C)(=O)=O)C4)c(F)c3)c2c1)c1c(Cl)cncc1Cl', 'IC50', '50 to 200 nM');

Q: Value lookup for IC50; key = COc1cc2[nH]nc(-c3cnc(N4CC(C)(NC[C@@H](C)O)C4)c(F)c3)c2cc1O[C@H](C)c1c(Cl)cncc1Cl
Result: 0.1 to 50 nM

Q: Value lookup for IC50; key = CC(C)CN(C)C1(C)CN(c2ncc(-c3n[nH]c4ccc(O[C@H](C)c5c(Cl)cncc5Cl)cc34)cc2F)C1
Result: > 1000 nM

Q: Value lookup for IC50; key = COc1cc2[nH]nc(-c3cnc(N4CC(C)(NCC5CC5)C4)c(F)c3)c2cc1O[C@H](C)c1c(Cl)cncc1Cl
Result: 0.1 to 50 nM

Q: Value lookup for IC50; key = CC(C)NC1(CC#N)CN(c2ncc(-c3n[nH]c4ccc(O[C@H](C)c5c(Cl)cncc5Cl)cc34)cc2F)C1
Result: 50 to 200 nM

Q: Value lookup for IC50; key = CCOCC1(N)CN(c2ccc(-c3n[nH]c4ccc(O[C@H](C)c5c(Cl)cncc5Cl)cc34)nn2)C1
Result: 50 to 200 nM

Q: Value lookup for IC50; key = C[C@@H]1[C@@H](CS(C)(=O)=O)CN1c1ncc(-c2n[nH]c3ccc(O[C@H](C)c4c(Cl)cncc4Cl)cc23)cc1F
Result: 50 to 200 nM

====

Listing of recorded Kd by entry.
- Target Under Test: FGFR3 (Homo sapiens, UniProt P22607)
- Construct: made in house; host or cells: E. coli (BL21-derived), T7 phage
- Sequence (P22607 23-806): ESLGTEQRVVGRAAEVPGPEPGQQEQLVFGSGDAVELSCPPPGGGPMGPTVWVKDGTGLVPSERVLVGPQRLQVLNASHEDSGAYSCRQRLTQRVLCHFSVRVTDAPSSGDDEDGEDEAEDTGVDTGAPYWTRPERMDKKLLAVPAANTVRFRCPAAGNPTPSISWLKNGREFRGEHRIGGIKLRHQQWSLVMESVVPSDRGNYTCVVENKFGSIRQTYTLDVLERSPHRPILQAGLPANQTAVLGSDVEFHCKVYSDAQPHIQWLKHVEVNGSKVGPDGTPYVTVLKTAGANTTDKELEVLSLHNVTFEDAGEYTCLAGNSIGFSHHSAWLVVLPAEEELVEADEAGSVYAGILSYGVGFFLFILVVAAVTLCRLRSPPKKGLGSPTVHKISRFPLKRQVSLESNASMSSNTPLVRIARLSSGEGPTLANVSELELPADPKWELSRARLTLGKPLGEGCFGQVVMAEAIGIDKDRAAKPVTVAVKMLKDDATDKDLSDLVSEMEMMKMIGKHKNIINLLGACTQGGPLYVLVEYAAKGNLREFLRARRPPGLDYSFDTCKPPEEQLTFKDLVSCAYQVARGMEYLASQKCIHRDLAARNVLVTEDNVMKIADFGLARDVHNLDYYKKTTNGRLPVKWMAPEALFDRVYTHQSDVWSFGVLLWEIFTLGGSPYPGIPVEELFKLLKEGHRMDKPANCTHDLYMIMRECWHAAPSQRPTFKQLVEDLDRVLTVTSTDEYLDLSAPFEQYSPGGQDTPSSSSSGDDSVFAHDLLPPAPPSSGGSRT
- Assay Explanation: Kinase binding assay (kinase-tagged T7 phage, affinity beads, qPCR), Kd
- Condition: read-out: FGFR3 (Kd nM)
Where a name gives a salt, the structure may show the parent alone.

Worked examples, 5 compounds total:
INSERT INTO results (compound, reported_property, obs_value) VALUES
  ('COc1cc2[nH]nc(-c3cnc(N4CC5(CC5)C4)nc3)c2cc1O[C@H](C)c1c(Cl)cncc1Cl [Example 62]', 'Kd', '1 to 50 nM'),
  ('CC(C)CNC1(CC#N)CN(c2ncc(-c3n[nH]c4ccc(O[C@H](C)c5c(Cl)cncc5Cl)cc34)cc2F)C1 [Example 253, dihydrochloride]', 'Kd', '1 to 50 nM'),
  ('Cc1ncc(Cl)c([C@@H](C)Oc2ccc3[nH]nc(-c4cnc(N5CC(C)(NC(C)C)C5)c(F)c4)c3c2)c1Cl [Example 221]', 'Kd', '1 to 50 nM'),
  ('COc1cc2[nH]nc(-c3cnc(N4CC(C)(NCCO)C4)c(C#N)c3)c2cc1O[C@H](C)c1c(Cl)cncc1Cl [Example 47]', 'Kd', '1 to 50 nM'),
  ('C[C@@H](Oc1ccc2[nH]nc(-c3cnc(N4CC(C)(NCC5CC5)C4)c(C#N)c3)c2c1F)c1c(Cl)cncc1Cl [Example 318]', 'Kd', '> 1000 nM');

Q: Value lookup for Kd; key = C[C@@H](Oc1ccc2[nH]nc(-c3ccc(N4CC(N)(CCCO)C4)nn3)c2c1)c1c(Cl)cncc1Cl [Example 372]
Result: 1 to 50 nM

Q: Value lookup for Kd; key = C[C@@H](Oc1ccc2[nH]nc(-c3cnc(N4CC(N)(CCC#N)C4)c(F)c3)c2c1)c1c(Cl)cncc1Cl [Example 298]
Result: 1 to 50 nM

Q: Value lookup for Kd; key = COc1cc2[nH]nc(-c3cnc(N4C[C@H](CS(C)(=O)=O)[C@H]4C)c(C#N)c3)c2cc1O[C@@H](C)c1c(Cl)cncc1Cl [Example 335]
Result: 300 to 1000 nM

Q: Value lookup for Kd; key = COc1cc2[nH]nc(-c3cnc(N4CC(C)(N(C)CC5CC5)C4)c(C#N)c3)c2cc1O[C@H](C)c1c(Cl)cncc1Cl [Example 344]
Result: 1 to 50 nM

Q: Value lookup for Kd; key = COc1cc2[nH]nc(-c3cnc(N4CC(C)(CS(C)(=O)=O)C4)c(C#N)c3)c2cc1O[C@@H](C)c1c(Cl)cncc1Cl [Example 332]
Result: 300 to 1000 nM

Q: Value lookup for Kd; key = Cc1ncc(Cl)c([C@@H](C)Oc2ccc3[nH]nc(-c4cnc(N5CC(CC#N)(NCC(C)C)C5)c(F)c4)c3c2)c1Cl [Example 254]
Result: 1 to 50 nM

Q: Value lookup for Kd; key = C[C@@H](Oc1ccc2[nH]nc(-c3ccc(N4CC(N)(Cc5ccn(C)n5)C4)nn3)c2c1)c1c(Cl)cncc1Cl [Example 306]
Result: 1 to 50 nM

====

Listing of recorded Kd by entry.
- Target Under Test: FGFR1 (Homo sapiens)
- Construct: made in house; host or cells: E. coli (BL21-derived), T7 phage
- Assay Explanation: Kinase binding assay (kinase-tagged T7 phage, affinity beads, qPCR), Kd
- Condition: read-out: FGFR1 (Kd nM)

INSERT INTO measurements (entry_smiles, target_under_test, obs_value) VALUES
  ('C[C@@H](Oc1ccc2[nH]nc(-c3cnc(N4CC(C)(N5CCP(C)(=O)CC5)C4)c(C#N)c3)c2c1)c1c(Cl)cncc1Cl', 'FGFR1 (Homo sapiens)', '1 to 50 nM'),
  ('C[C@@H](Oc1ccc2[nH]nc(-c3ccc(N4CC(C)(NC5CCC5)C4)nc3)c2c1)c1c(Cl)cncc1Cl', 'FGFR1 (Homo sapiens)', '1 to 50 nM'),
  ('COCC1(N)CN(c2ncc(-c3n[nH]c4ccc(O[C@H](C)c5c(Cl)cncc5Cl)cc34)cc2F)C1', 'FGFR1 (Homo sapiens)', '1 to 50 nM'),
  ('Cc1ncc(Cl)c([C@@H](C)Oc2ccc3[nH]nc(-c4cnc(N5CC(C)(N6CCOCC6)C5)c(C#N)c4)c3c2)c1Cl', 'FGFR1 (Homo sapiens)', '300 to 1000 nM'),
  ('C[C@@H](Oc1ccc2[nH]nc(-c3cnc(N4CC(C)(NCC(=O)N(C)C)C4)c(F)c3)c2c1)c1c(Cl)cncc1Cl', 'FGFR1 (Homo sapiens)', '1 to 50 nM'),
  ('C[C@@H](Oc1ccc2[nH]nc(-c3ccc(N4CC(N)(CCO)C4)nn3)c2c1)c1c(Cl)cncc1Cl', 'FGFR1 (Homo sapiens)', '1 to 50 nM'),
  ('C[C@@H](Oc1ccc2[nH]nc(-c3ccc(N4CC(C)(NCCO)C4)nc3)c2c1F)c1c(Cl)cncc1Cl', 'FGFR1 (Homo sapiens)', '300 to 1000 nM');

Now turn to the next compound.
Q: Value lookup for Kd; key = COc1cc2[nH]nc(-c3cc(C#N)c(N4CC(C)(NCC5CC5)C4)nn3)c2cc1O[C@H](C)c1c(Cl)cncc1Cl
Result: 1 to 50 nM
